So I've got a bunch of compounds here, and I need their pIC50 values.
ASSAY TARGET: BuChE from equine serum (Equus caballus)
Sequence (P81908 whole entry): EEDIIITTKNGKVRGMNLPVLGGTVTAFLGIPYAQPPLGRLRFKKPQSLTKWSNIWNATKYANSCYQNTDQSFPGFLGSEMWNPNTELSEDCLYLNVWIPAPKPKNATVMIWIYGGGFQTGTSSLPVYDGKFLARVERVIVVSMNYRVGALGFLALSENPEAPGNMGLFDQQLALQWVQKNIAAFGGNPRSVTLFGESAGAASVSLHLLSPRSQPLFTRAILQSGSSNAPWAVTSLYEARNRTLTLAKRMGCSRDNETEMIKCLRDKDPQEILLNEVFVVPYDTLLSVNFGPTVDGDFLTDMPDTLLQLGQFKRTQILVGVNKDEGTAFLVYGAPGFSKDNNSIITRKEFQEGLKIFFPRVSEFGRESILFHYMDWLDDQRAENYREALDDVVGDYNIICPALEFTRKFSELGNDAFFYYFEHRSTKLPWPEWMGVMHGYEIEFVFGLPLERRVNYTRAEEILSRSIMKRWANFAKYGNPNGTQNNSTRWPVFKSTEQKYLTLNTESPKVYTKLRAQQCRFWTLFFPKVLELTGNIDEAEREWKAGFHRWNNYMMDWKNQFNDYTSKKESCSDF
ASSAY REMARKS: BuChE inhibition, Ellman's method
pIC50: −log10 of the molar value.

Supply pIC50 value. Item: CS(=O)(=O)c1ccc2nc(NC(=O)CCN3CCN(c4ncccn4)CC3)sc2c1 < 4.00

Supply pIC50 value. Item: CS(=O)(=O)c1ccc2nc(NC(=O)CCN3CCN(c4ccccn4)CC3)sc2c1 < 4.00

Supply pIC50 value. Item: CS(=O)(=O)c1ccc2nc(NC(=O)CCN3CCN(Cc4ccccc4)CC3)sc2c1 < 4.00

Supply pIC50 value. Item: CS(=O)(=O)c1ccc2nc(NC(=O)CCN3CCN(C(=O)c4ccco4)CC3)sc2c1 < 4.00

Supply pIC50 value. Item: Cc1ccc(N2CCN(CCC(=O)Nc3nc4ccc(S(C)(=O)=O)cc4s3)CC2)cc1 < 4.00

Supply pIC50 value. Item: CS(=O)(=O)c1ccc2nc(NC(=O)CCN3CCN(Cc4ccc5c(c4)OCO5)CC3)sc2c1 < 4.00

----------
So I've got a bunch of compounds here, and I need their IC50 values.
ASSAY TARGET: UniProt O42275
ASSAY REMARKS: AChE inhibition, Ellman's method
Format: biochemical
CONDITION INFO: IC50 ± SD (μM) AChE, means ± SD of three experiments
Give a bare numeral; the unit µM is implied.

Supply IC50 value. Item: CS(=O)(=O)c1ccc2nc(NC(=O)CCN3CCN(c4ccccc4)CC3)sc2c1 [Compound 4] 24.1

Supply IC50 value. Item: CS(=O)(=O)c1ccc2nc(NC(=O)CCN3CCN(C(=O)c4ccco4)CC3)sc2c1 [Compound 14] 14.6

Supply IC50 value. Item: CS(=O)(=O)c1ccc2nc(NC(=O)CCN3CCN(Cc4ccc5c(c4)OCO5)CC3)sc2c1 [Compound 16] 5.24

Supply IC50 value. Item: CS(=O)(=O)c1ccc2nc(NC(=O)CCN3CCN(c4ccc(C(F)(F)F)cc4)CC3)sc2c1 [Compound 17] 26.4

----------
ASSAY TARGET: AChE from electric eel (Electrophorus electricus, UniProt O42275)
Sequence (O42275 24-633): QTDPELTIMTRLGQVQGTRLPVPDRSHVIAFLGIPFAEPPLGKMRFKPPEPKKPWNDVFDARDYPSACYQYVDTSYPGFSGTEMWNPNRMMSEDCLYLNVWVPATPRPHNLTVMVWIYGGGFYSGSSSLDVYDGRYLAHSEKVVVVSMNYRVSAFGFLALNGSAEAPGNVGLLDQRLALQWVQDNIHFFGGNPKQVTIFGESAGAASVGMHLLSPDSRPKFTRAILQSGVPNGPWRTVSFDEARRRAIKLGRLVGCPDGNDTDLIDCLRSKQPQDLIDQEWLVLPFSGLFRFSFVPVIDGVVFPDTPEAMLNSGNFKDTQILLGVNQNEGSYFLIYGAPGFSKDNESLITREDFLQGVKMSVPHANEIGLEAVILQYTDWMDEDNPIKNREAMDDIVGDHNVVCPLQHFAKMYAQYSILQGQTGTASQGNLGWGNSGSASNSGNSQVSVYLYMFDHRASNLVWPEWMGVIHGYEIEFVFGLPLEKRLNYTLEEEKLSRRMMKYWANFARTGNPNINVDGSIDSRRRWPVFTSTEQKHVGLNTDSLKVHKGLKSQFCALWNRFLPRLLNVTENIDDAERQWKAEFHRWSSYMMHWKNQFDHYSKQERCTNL
ASSAY REMARKS: AChE inhibition, Ellman's method
Assay type: biochemical
CONDITION INFO: IC50 ± SD (μM) AChE, means ± SD of three experiments
PROPERTY MEASURED: IC50 (µM)
Give a bare numeral; the unit µM is implied.

Supply IC50 value. Item: Cc1ccc(N2CCN(CCC(=O)Nc3nc4ccc(S(C)(=O)=O)cc4s3)CC2)cc1 [Compound 8] 20.2

Supply IC50 value. Item: CS(=O)(=O)c1ccc2nc(NC(=O)CCN3CCN(Cc4ccccc4)CC3)sc2c1 [Compound 10] 7.83

Supply IC50 value. Item: CS(=O)(=O)c1ccc2nc(NC(=O)CCN3CCN(c4ccc([N+](=O)[O-])cc4)CC3)sc2c1 [Compound 7] 11.3

Supply IC50 value. Item: CS(=O)(=O)c1ccc2nc(NC(=O)CCN3CCN(c4ccc(Cl)cc4)CC3)sc2c1 [Compound 6] 13

Supply IC50 value. Item: COc1ccc(N2CCN(CCC(=O)Nc3nc4ccc(S(C)(=O)=O)cc4s3)CC2)cc1 [Compound 9] 14.5

Supply IC50 value. Item: CS(=O)(=O)c1ccc2nc(NC(=O)CCN3CCN(c4ccc(F)cc4)CC3)sc2c1 [Compound 5] 18.3

Supply IC50 value. Item: CS(=O)(=O)c1ccc2nc(NC(=O)CCN3CCN(c4ncccn4)CC3)sc2c1 [Compound 13] 10.9

Supply IC50 value. Item: CS(=O)(=O)c1ccc2nc(NC(=O)CCN3CCN(C(=O)OCc4ccccc4)CC3)sc2c1 [Compound 15] 19.5
